Tested on: KM12 colon
Assay Summary: NCI-60 one-dose screen, 48 h (100 = growth as untreated, 0 = no growth, -100 = all killed)
Condition Info: 10 µM unless noted
Compounds without any hit were thinned out: in the full panel of roughly 83,000, 20% have a hit.

>  <Molecule>
Clc1ccc2c(c1)N(CCCN1CCCC1)c1ccccc1S2

>  <Unit Spec>
%

>  <growth>
44.6

$$$$
>  <Molecule>
O=C(O)CCC/C=C\C[C@H]1C=CC(=O)/C1=C/C[C@@H](O)CCc1cccc(C(F)(F)F)c1

>  <Unit Spec>
%

>  <growth>
-47

$$$$
>  <Molecule>
CCCCCCCNC(=O)CCCNc1ncnc2c1ncn2-c1cccc(C(C)O)c1 (stereo unspecified)

>  <Unit Spec>
%

>  <growth>
95.6

$$$$
>  <Molecule>
C=C1C(=O)O[C@H]2[C@H]1CC/C(COC(=O)C(C)c1ccc(CC(C)C)cc1)=C\CC[C@@]1(C)O[C@@H]21 (stereo partly specified)

>  <Unit Spec>
%

>  <growth>
31.8

$$$$
>  <Molecule>
COc1ccc2c(c1)/C(=C/c1sc(=S)n(Cc3ccco3)c1O)C=N2

>  <Unit Spec>
%

>  <growth>
23.9

$$$$
>  <Molecule>
CNc1nc2c(s1)C(c1cc(F)ccc1F)CC(=O)N2 (stereo unspecified)

>  <Unit Spec>
%

>  <growth>
52.9

$$$$
>  <Molecule>
Cc1ccc(-c2nc(N3CCN(C(=O)c4ccc(OC(F)(F)F)cc4)CC3)c3ccccc3n2)cc1

>  <Unit Spec>
%

>  <growth>
93

$$$$
>  <Molecule>
CC(C)C(=O)Nc1ccc(-c2nc(-c3cccc(OCCN4CCOCC4)c3)c(-c3ccnc(Br)c3)[nH]2)cc1

>  <Unit Spec>
%

>  <growth>
33.7

$$$$
>  <Molecule>
O=C(CS(=O)c1oc(-c2cccs2)nc1S(=O)(=O)c1ccc(Br)cc1)c1ccccc1 (stereo unspecified)

>  <Unit Spec>
%

>  <growth>
102

$$$$
>  <Molecule>
CCOC(=O)c1cn2ncnc(Oc3ccc(NC(=O)NCCN(CC)CC)c(Cl)c3)c2c1C

>  <Unit Spec>
%

>  <growth>
96.4

$$$$
>  <Molecule>
CSc1nc2ccc(C)cc2cc1/C=N/O

>  <Unit Spec>
%

>  <growth>
93.7

$$$$
>  <Molecule>
CNCCCNc1nc2ccccc2c2c(=O)c3cc(OC)ccc3sc12

>  <Unit Spec>
%

>  <growth>
35.3

$$$$
>  <Molecule>
CCN1C(=O)N(CC)C2Nn3c(s/c(=C\c4ccc([N+](=O)[O-])cc4)c3=O)=NC21 (stereo unspecified)

>  <Unit Spec>
%

>  <growth>
97.8

$$$$
>  <Molecule>
O=c1c2cc(C(F)(F)F)ccc2sc2c(NCCCNCCO)nc3ccccc3c12

>  <Unit Spec>
%

>  <growth>
-67.8

$$$$
>  <Molecule>
COc1cc(/C=N/NC(=O)c2ccc(C)nc2)cc(OC)c1OC

>  <Unit Spec>
%

>  <growth>
97.8

$$$$
>  <Molecule>
Cc1cccc2c1S/C(=C/c1ccc([N+](=O)[O-])cc1)C2=O

>  <Unit Spec>
%

>  <growth>
107

$$$$

---

Test system: NCI-H460 lung
Assay Summary: NCI-60 one-dose screen, 48 h (100 = growth as untreated, 0 = no growth, -100 = all killed)
Condition Info: 10 µM unless noted
Compounds without any hit were thinned out: in the full panel of roughly 83,000, 20% have a hit.
Measurement Type: growth (%)

>  <Substance Smiles>
CCOC(=O)c1sc2ncc(-c3ccc(OC)cc3)n2c1C

>  <Measured Target>
NCI-H460 lung

>  <Unit Spec>
%

>  <Quantitative Result>
103

$$$$
>  <Substance Smiles>
O=C(COc1ccc(/C=C2\Cc3ccc(Cl)cc3C2=O)cc1)Nc1nc2ccccc2s1

>  <Measured Target>
NCI-H460 lung

>  <Unit Spec>
%

>  <Quantitative Result>
103

$$$$
>  <Substance Smiles>
Cc1c(C(=O)NCCN2CCOCC2)cn2ncnc(Oc3ccc(NC(=O)Nc4ccc(Cl)c(C(F)(F)F)c4)cc3)c12

>  <Measured Target>
NCI-H460 lung

>  <Unit Spec>
%

>  <Quantitative Result>
3.24

$$$$
